Tested on: Saccharomyces cerevisiae BY4741 SeMeCo community
Experiment: z-score of subpopulation abundance vs DMSO median, subpopulation auxotrophic for HM; higher = larger share of this subpopulation than in DMSO controls
Settings: 10 µM; 24 h; SM minimal medium; subpopulation (auxotrophy): HM
Where a name gives a salt, the structure may show the parent alone.

{"columns": ["compound", "z-score of subpopulation abundance"],
 "data": [
  ["Nc1ccc(S(=O)(=O)NC(=O)c2ccccc2)cc1 [Sulfabenzamide]", -0.23],
  ["CCN(CC)CCOc1ccc2c(c1)C(=O)c1cc(OCCN(CC)CC)ccc1-2 [Tilorone dihydrochloride]", -1.02],
  ["O=C(O)C[C@H](O)C[C@H](O)/C=C/c1c(C2CC2)nc2ccccc2c1-c1ccc(F)cc1 [Pitavastatin Calcium]", 4.05],
  ["C#C[C@]1(O)CC[C@H]2[C@@H]3CCc4cc(O)ccc4[C@H]3CC[C@@]21C [Ethinyl Estradiol]", 0],
  ["CCCCCCCCCCCC(=O)O [Lauric Acid]", -0.82],
  ["C/C=C1\\[C@H]2C=C(C)C[C@]1(N)c1ccc(=O)[nH]c1C2 [(-)-Huperzine A (HupA)]", 0.12],
  ["CCCCCCCN(CC)CCCC(O)c1ccc(NS(C)(=O)=O)cc1 (stereo not given) [Ibutilide Fumarate]", 0.11],
  ["CC[C@H]1OC(=O)C[C@@H](O)[C@H](C)[C@@H](O[C@@H]2O[C@H](C)[C@@H](O[C@H]3C[C@@](C)(O)[C@@H](O)[C@H](C)O3)[C@H](N(C)C)[C@H]2O)[C@@H](CC=O)C[C@@H](C)C(=O)/C=C/C(C)=C/[C@@H]1CO[C@@H]1O[C@H](C)[C@@H](O)[C@@H](OC)[C@H]1OC [Tylosin]", 0.74],
  ["Clc1ccc(C(Cn2ccnc2)OCc2ccc(Sc3ccccc3)cc2)c(Cl)c1 (stereo not given) [Fenticonazole Nitrate]", -6.61],
  ["Cc1cc(C)nc(NS(=O)(=O)c2ccc(N)cc2)n1 [Sulfamethazine Sodium Salt]", -0.79],
  ["CCC1=C(C)CN(C(=O)NCCc2ccc(S(=O)(=O)NC(=O)N[C@H]3CC[C@H](C)CC3)cc2)C1=O [Glimepiride]", 0.24],
  ["O=C(Nc1cc(Cl)cc(Cl)c1O)c1c(O)c(Cl)cc(Cl)c1Cl [Oxyclozanide]", -2.11],
  ["COc1ccccc1OCC(O)CN1CCN(CC(=O)Nc2c(C)cccc2C)CC1 (stereo not given) [Ranolazine 2HCl]", -0.18],
  ["CC[C@H]1OC(=O)[C@H](C)[C@@H](O[C@H]2C[C@@](C)(OC)[C@@H](O)[C@H](C)O2)[C@H](C)[C@@H](O[C@@H]2O[C@H](C)C[C@H](N(C)C)[C@H]2O)[C@](C)(O)C[C@@H](C)C(=O)[C@H](C)[C@H]2OC(=O)O[C@@]21C [Erythromycin Cyclocarbonate]", 0.9],
  ["CO/N=C(\\C(=O)N[C@@H]1C(=O)N2C(C(=O)[O-])=C(C[N+]3(C)CCCC3)CS[C@H]12)c1csc(N)n1 [Cefepime Dihydrochloride Monohydrate]", 1.14]
]}

---

System: Saccharomyces cerevisiae BY4741 SeMeCo community
Test: z-score of subpopulation abundance vs DMSO median, subpopulation auxotrophic for L; higher = larger share of this subpopulation than in DMSO controls
Settings: 10 µM; 24 h; SM minimal medium; subpopulation (auxotrophy): L
Where a name gives a salt, the structure may show the parent alone.
# z-score of subpopulation abundance values compiled below

{"columns": ["compound", "z-score of subpopulation abundance"],
 "data": [
  ["Nc1c2c(nc3ccccc13)CCCC2 [Tacrine hydrochloride hydrate]", -0.15],
  ["CN1CCN2c3ncccc3Cc3ccccc3C2C1 (stereo not drawn)", -0.64],
  ["CC[C@H](C)C(=O)O[C@H]1C[C@H](O)C=C2C=C[C@H](C)[C@H](CC[C@@H](O)C[C@@H](O)CC(=O)O)[C@H]21 [Pravastatin]", -0.43],
  ["Cc1cc(/C=C/c2ccc3cc(N(C)C)ccc3[n+]2C)c(C)n1-c1ccccc1", -1.29],
  ["N#Cc1ccc(Oc2ccc3c(c2)COB3O)cc1", 2.57],
  ["CC1=C(CC(=O)O)c2cc(F)ccc2/C1=C\\c1ccc([S+](C)[O-])cc1 (stereo not drawn)", 1.59],
  ["CCC[C@@H]1C[C@@H](C(=O)N[C@@H]([C@H]2O[C@H](SC)[C@H](O)[C@@H](O)[C@H]2O)[C@H](C)Cl)N(C)C1 [Clindamycin HCl]", 0.8],
  ["CN(Cc1ccc(C(C)(C)C)cc1)Cc1cccc2ccccc12 [Butenafine HCl]", -0.23]
]}
